tested on: Plasmodium berghei; experiment: Luciferase/luciferin-expressing antifolate-resistant parasites were used to infect a culture of HepG2 cells that were pre-incubated with compounds. Infected hepatocytes emit light due to the luciferase reaction. Assay results are presented as the percent inhibition of light emission compared to control. […]; assay type: functional; conditions: sporozoite, FFLUC_HILL_SLOPE 1.61, FFLUC_R_SQUARED 0.895, PBLUC_HILL_SLOPE 1.62, PBLUC_R_SQUARED 0.572, read-out: LUCIFERASE INFECTION ASSAY - IC50
pIC50: −log10 of the molar value.
readout: pIC50

structure_smiles=COC(=O)c1c(C)[nH]c(C2=NNC(=NC3CC3)SC2)c1C readout=pIC50 observed_result=7.82
